Source: paper PMC9186362

- measurement-target: HsGSK3β (Homo sapiens)
- Sequence (P49841 whole entry): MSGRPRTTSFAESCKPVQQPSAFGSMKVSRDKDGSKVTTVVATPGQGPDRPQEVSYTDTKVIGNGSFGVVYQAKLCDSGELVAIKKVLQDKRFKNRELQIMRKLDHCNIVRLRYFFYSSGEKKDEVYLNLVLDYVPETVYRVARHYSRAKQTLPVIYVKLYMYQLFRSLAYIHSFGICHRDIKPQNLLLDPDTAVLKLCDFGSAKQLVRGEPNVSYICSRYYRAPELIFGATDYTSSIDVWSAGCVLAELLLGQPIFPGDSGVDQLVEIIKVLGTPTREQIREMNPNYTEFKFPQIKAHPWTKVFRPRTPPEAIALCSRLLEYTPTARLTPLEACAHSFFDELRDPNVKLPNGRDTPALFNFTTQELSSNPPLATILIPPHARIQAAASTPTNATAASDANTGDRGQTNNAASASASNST
- procedure-details: ADP-Glo kinase assay
- Assay type: biochemical, Homo sapiens (Hs)
- stated-conditions: mean n = 2, % of maximum activity of DMSO control, read-out: % Residual activity at 1 μM GSK3β
- Protocol: Kinase activities were determined using the ADP-Glo methodology (ADP-Glo Kinase Assay; Promega) according to the assay described by Nguyen et al.[32] except for MmCLK1. The later was assayed in the following buffer: 10 mM MgCl2, 1 mM EGTA, 1 mM DTT, 25 mM Tris-HCl pH 7.5, 50 µg/ml heparin, 0.15 mg/ml BSA, with 0.027 µg/µl of the following peptide: GRSRSRSRSRSR as substrate.
experimental-readout: remaining activity at 1 µM (%)

Some entries whose results are on file:
COc1ccc2[nH]c(=O)c3[nH]c4ccc(F)cc4c3c2c1 [Compound 60] : 100
COc1ccc2[nH]c(=O)c3[nH]c4ccc(OC)cc4c3c2c1 [Compound 51] : 29

A. COc1ccc2c(c1)[nH]c(=O)c1[nH]c3ccc(OC)cc3c12 [Compound 50]
B. O=c1[nH]c2ccc(O)cc2c2c1[nH]c1ccccc12 [Compound 48]
IN: Min remaining activity at 1 µM? A | B Write down the label of the entry you select.
OUT: A
